These measurements were taken from ChEMBL document CHEMBL3286129.

Assay: Growth inhibition of human BT549 cells
Type: functional
Conditions: BT-549, read-out: LC50 (the source's name)
Quick reference: CC50 of the listed items.

Examples with their reported CC50 follow.
[
  {
    "smilesString": "CC(C)C[C@H](NC(=O)CCn1ccc2ccccc2c1=O)B(O)O",
    "CC50": "> 100 µM"
  },
  {
    "smilesString": "CC(C)C[C@H](NC(=O)Cn1ccc2ccc(Br)cc2c1=O)B(O)O",
    "CC50": "> 100 µM"
  },
  {
    "smilesString": "CC(C)C[C@H](NC(=O)CCn1ccc2ccc(Br)cc2c1=O)B(O)O",
    "CC50": "> 100 µM"
  }
]

API: the following record is the query input.
CC50 for "CC(C)C[C@H](NC(=O)CCn1ccc2ncccc2c1=O)B(O)O" is > 100 µM

---

System: MDA-MB-435
Experiment: Growth inhibition of human MDA-MB-435 cells
Assay type: functional
Settings: read-out: LC50 (the source's name)
measuredQuantity: CC50 (µM)
Numeric only. Scale: µM

[
  {
    "smilesString": "CC(C)C[C@H](NC(=O)CCn1ccc2ncccc2c1=O)B(O)O",
    "testSystem": "MDA-MB-435",
    "valueUnits": "µM",
    "CC50": 67.8
  },
  {
    "smilesString": "CC(C)C[C@H](NC(=O)CCn1ccc2ccccc2c1=O)B(O)O",
    "testSystem": "MDA-MB-435",
    "valueUnits": "µM",
    "CC50": 6.24
  },
  {
    "smilesString": "CC(C)C[C@H](NC(=O)Cn1ccc2ccc(Br)cc2c1=O)B(O)O",
    "testSystem": "MDA-MB-435",
    "valueUnits": "µM",
    "CC50": 5.88
  }
]

API: the following record is the query input.
CC50 for "CC(C)C[C@H](NC(=O)CCn1ccc2ccc(Br)cc2c1=O)B(O)O" is 0.78

---

Test system: SK-MEL-5
Experiment: Growth inhibition of human SK-MEL-5 cells
Assay type: functional
Quick reference: GI50 of the listed items.

[
  {
    "compound": "CC(C)C[C@H](NC(=O)CCn1ccc2ccccc2c1=O)B(O)O",
    "endpointResult": "4300 nM"
  }
]

GI50 for CC(C)C[C@H](NC(=O)[C@H](Cc1ccccc1)NC(=O)c1cnccn1)B(O)O [BORTEZOMIB] is 0.68 nM

---

Test: Growth inhibition of human SF295 cells
Format: functional
Details: SF-295
measuredQuantity: TGI (µM)
Numeric only. Scale: µM

TGI for "CC(C)C[C@H](NC(=O)CCn1ccc2ccccc2c1=O)B(O)O" is 19.6

---

System: K562
Assay: Growth inhibition of human K562 cells
Format: functional
// NB: equality with 3 µM counts as 0 (no); only GI50 strictly below is 1 (yes)

Check out these entries, answers already filled in.
[
  {
    "smilesString": "CC(C)C[C@H](NC(=O)CCn1ccc2ccc(Br)cc2c1=O)B(O)O",
    "cat": "1 (yes)"
  },
  {
    "smilesString": "CC(C)C[C@H](NC(=O)[C@H](Cc1ccccc1)NC(=O)c1cnccn1)B(O)O",
    "cat": "1 (yes)"
  }
]

(Q) Bench note: check whether "CC(C)C[C@H](NC(=O)CCn1ccc2ncccc2c1=O)B(O)O" shows GI50 below 3 µM
(A) 0 (no)

(Q) Bench note: check whether "CC(C)C[C@H](NC(=O)Cn1ccc2ccc(Br)cc2c1=O)B(O)O" shows GI50 below 3 µM
(A) 0 (no)

(Q) Bench note: check whether "CC(C)C[C@H](NC(=O)CCn1ccc2ccccc2c1=O)B(O)O" shows GI50 below 3 µM
(A) 0 (no)
